Biological target: nsP13 helicase (SARS-CoV-2, UniProt P0DTD1 5325-5925)
Experiment: competition, 500 nM ssDNA-F, 30 nM nsP13; 3 mM ATP, 5 mM Mg2+; K1/2 of TrapDNA
Conditions: protein: recombinant; chain copies: 2; single strand 25 nt
MEASURED_PARAMETER: IC50

Return reported IC50; argument: TCTAATGTAGTATAGTAATCCGCTC (ssDNA) [TrapDNA]
950 nM
